Here, each record is paired with measured cytotoxicity at 10 µM data.
- test_protocol: Toxicity liver stage against HepG2, at 10uM
- Type: cell-based
- Design: test concentration 10 uM, cell line HepG2-A16-CD81EGFP
- condition_summary: human, HepG2-A16-CD81EGFP cells; read-out: INHIBITION
readout_kind: cytotoxicity at 10 µM (%)

1) OC1(CNc2ccc(Br)cn2)CCSCC1	5.63
2) CCc1ccccc1NC(=O)CCc1cnn(C)c1	8.66
3) Cn1nnc(NCc2ccccc2OCc2ccc(Cl)cc2)n1	2.71
4) CCc1ccc(O)c(C(=O)N2CCN(CC(=O)N(CC)CC)CC2)c1	4.49
5) O=C1c2cccnc2OC(CN2CCOCC2)CN1Cc1cccs1 (centres undefined)	-3.35
6) Cc1nccn1CCC1CCCCN1Cc1ccc(O)cc1Cl (centres undefined)	-4.23
7) Fc1cccc(-c2nc(CN3CCn4c(nnc4C4CC4)C3)co2)c1	4.4
8) COc1ccc(C2(NC(=O)CCn3cncn3)CCCCC2)cc1	-3.12
9) O=C(C1CCSCC1)N1CCC2(CC1)COC(COCC1CC1)C2 (centres undefined)	2.56
10) c1c(CN2CCCCC2)nc2n1CCNC2	3.91
11) O=C(NC1CCc2c(ccc(=O)n2CC2CC2)C1)c1ccsc1 (centres undefined)	-4.48
12) Cc1cccc(C)c1OCC(=O)NC(C)c1nnc2n1CCC2 (centres undefined)	-3.09
13) CCCN1CCC(Cc2nc(CN3CCN(C)CC3)no2)CC1	1.25
14) O=C(c1ccc2[nH]nnc2c1)N1CC[C@H](O)[C@]2(CCCO2)C1	-2.98
15) CCc1ncc2c(n1)CN(Cc1nc(-c3cccnc3)no1)CC2	-1.62
16) O=C(NCCOCCO)c1cnc(-c2ccccc2)nc1O	0.701
17) O=C(NC1CC1)C1CCN(Cn2nc(-c3ccccc3)oc2=O)CC1	15
18) Cn1ccc2c(C(=O)NCC3(C(N)=O)CCOCC3)cccc21	-1.21
19) O=C1CC[C@H]2CN(c3ncc(F)cn3)CC[C@H]2N1CCc1ccccc1	9.61
20) Cc1cc(C)c(CNC(=O)NCCNc2ncccn2)c(=O)[nH]1	-49.4
21) CC(C)[C@H](NC(=O)NC1CCS(=O)(=O)C1)C(=O)NCc1ccccc1Cl (some centres undefined)	5.91
22) C=C(C)COc1ccc(C(=O)N(C)C(C)c2ccon2)cc1 (centres undefined)	4.18
23) Cn1cc(S(=O)(=O)NCCc2nnc3ccccn23)cn1	8.43
24) CC1CCC(C(=O)N2CCC(n3cc(C4(O)CCCC4)nn3)CC2)CC1 (centres undefined)	9.08
